Molecular target: VAP-1 in human plasma (Homo sapiens)
Sequence (Q16853 27-763 limits assumed): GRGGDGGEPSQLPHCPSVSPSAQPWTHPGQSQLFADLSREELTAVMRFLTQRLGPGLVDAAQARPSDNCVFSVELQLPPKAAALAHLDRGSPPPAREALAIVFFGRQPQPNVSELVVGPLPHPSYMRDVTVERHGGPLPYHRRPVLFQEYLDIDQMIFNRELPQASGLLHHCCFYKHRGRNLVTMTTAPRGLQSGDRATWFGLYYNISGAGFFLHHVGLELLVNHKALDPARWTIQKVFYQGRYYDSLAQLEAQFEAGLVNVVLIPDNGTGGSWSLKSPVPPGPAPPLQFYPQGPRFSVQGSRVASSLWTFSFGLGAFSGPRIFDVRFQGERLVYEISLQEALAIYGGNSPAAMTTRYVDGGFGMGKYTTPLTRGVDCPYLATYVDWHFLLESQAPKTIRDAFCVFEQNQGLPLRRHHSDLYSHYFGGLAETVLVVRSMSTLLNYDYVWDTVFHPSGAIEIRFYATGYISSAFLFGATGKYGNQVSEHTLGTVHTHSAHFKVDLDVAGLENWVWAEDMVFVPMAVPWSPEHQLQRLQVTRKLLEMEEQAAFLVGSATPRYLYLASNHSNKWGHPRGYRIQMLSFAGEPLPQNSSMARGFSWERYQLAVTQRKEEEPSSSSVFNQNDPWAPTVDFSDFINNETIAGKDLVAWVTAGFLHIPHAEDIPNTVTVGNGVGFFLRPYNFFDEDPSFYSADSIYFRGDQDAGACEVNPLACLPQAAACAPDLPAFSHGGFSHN
Assay: Inhibition of VAP-1 activity in human whole plasma
Conditions: 15 min pre-incubation of enzyme and inhibitor
measured property: pIC50
Scale explanation: pIC50 corresponds to minus log10 of a concentration expressed in moles per litre.

Prompt: Suppose we examine the compound N#Cc1ccc(-c2nnn(Cc3cccc(CNC(=O)CN)c3)n2)cc1 ; what pIC50 value has been reported?
Response: 6.49
